The reported measurements were obtained from ChEMBL document CHEMBL1127667.

# targetEntity: GABA-A receptor; anion channel (Mus musculus) (UniProt Q8BHJ7+P26048+Q8QZW7+P50571+Q9R0Y8+P22723+A2AMW3+P62812+Q9JLF1+P26049+P22933+Q9D6F4+P63080+P27681+P16305)
# assayComment: In vivo activity against GABA-A benzodiazepine receptor in mice
# Assay type: functional, organism-based
# Parameters: unit not given here
Please provide measured Activity for the entries that follow.
Answers are plain numbers.

The cases that follow already have their Activity on record.
// `Cc1cc([N+](=O)[O-])cc2c1NC(=O)CN=C2c1ccccc1` : Activity value = 8.12

Lab book: Activity of `O=C1CN=C(c2ccccc2)c2cc(Cl)cc(Cl)c2N1` noted as 8

For record `Cc1cc2c(cc1C)C(c1ccccc1)=NCC(=O)N2` the listed Activity is 132

Give me Activity for each of these compounds, listed below.
1. O=C1CN=C(c2ccccc2)c2cc(-c3ccccc3)ccc2N1
2. Cc1cc(C)c2c(c1)C(c1ccccc1)=NCC(=O)N2

RESULT:
781
792
